MEASURED_ENDPOINT: melting point

CC(C)N(CC(O)COc1ccc(CC(N)=O)cc1)C(=O)/C=C/c1ccccc1 (stereo not drawn) = 102 to 105 °C
COc1ccc(/C=C/C(=O)N(CC(O)COc2ccc(CC(N)=O)cc2)C(C)C)cc1OC (stereo not drawn) = 176 to 178 °C
COc1ccc(/C=C/C(=O)N(CC(O)COc2cccc3ccccc23)C(C)C)cc1OC (stereo not drawn) = 172 to 174 °C
CC(C)N(CC(O)COc1cccc2ccccc12)C(=O)/C=C/c1cccc(Oc2ccccc2)c1 (stereo not drawn) = 118 to 120 °C
O=C(/C=C/c1ccccc1)OC12CC3CC(CC(C3)C1)C2 [Compound 1c, (E)-adamantan-1-yl cinnamate] = 183 to 185 °C

We now examine a further compound.
Reported melting point for O=C(/C=C/c1ccccc1)Oc1cccc2ccccc12 [Compound 1d, (E)-naphthalen-1-yl cinnamate] was 210 to 212 °C
